PROCEDURE_DETAILS: Headspace above the solution of WC scented block cleaner: relative partition parameter (SPME-GC)
Assay type: physicochemical
RUN_PARAMETERS: log of amount in headspace above 1% solution in water relative to amount in WC block; 1% odorant mixture, SPME 15 min
REPORTED_METRIC: Activity (logarithmic partition parameter above dissolved WC scented block cleaners)

> print(dat)
                                    molecule  obs.value
 1       CC(C)=CCCC(C)CCO (centres unmarked)     −1.575
 2                               OCCc1ccccc1     −1.636
 3                    C=C(C)[C@H]1CC=C(C)CC1     −1.102
 4          CC(=O)OCC=C(C)C [Prenyl acetate]     −1.070
 5  C=CC(C)CCCC(C)(C)O (centres unmarked) [Dihydromyrcenol]     −1.131
 6  CC(C)CCOC(=O)c1ccccc1O [Isoamyl salicylate]     −0.870
 7      CC1=CCC2CC1C2(C)C (centres unmarked)     −1.833
 8                  CCCCCC/C(C=O)=C\c1ccccc1     −1.413
 9  CC(C=O)Cc1ccc(C(C)(C)C)cc1 (centres unmarked)     −1.400
10  CC(=O)O[C@]1(C)CC[C@@]23C[C@@H]1C(C)(C)[C@@H]2CC[C@H]3C [Cedryl acetate]     −1.161
11  CC(=O)/C=C/C1C(C)=CCCC1(C)C (centres unmarked)     −1.152

====

PROCEDURE_DETAILS: Headspace above the shampoo: relative partition parameter (SPME-GC)
Type: physicochemical
RUN_PARAMETERS: log of amount in headspace relative to amount in shampoo; 1% odorant mixture, SPME 15 min
REPORTED_METRIC: Activity (logarithmic partition parameter above shampoo)

> print(dat)
                                   compound  obs.value
1      C=C1CCC2CC1C2(C)C (stereo not shown)      0.830
2                               OCCc1ccccc1     −0.742
3  CC(C=O)Cc1ccc(C(C)(C)C)cc1 (stereo not shown)     −1.900
4                    C=C(C)[C@H]1CC=C(C)CC1      0.965

====

PROCEDURE_DETAILS: Headspace above the wet washed hair: relative partition parameter headspace/shampoo (SPME-GC)
Assay type: physicochemical
RUN_PARAMETERS: log of amount in headspace above wet washed hair relative to amount in shampoo; 1% odorant mixture, 3 h standing, SPME 15 min
Protocol: The procedure is analogous in all examples. The example reflects the scent impression, which is perceived from freshly washed hair. The shampoo is prepared as is generally customary. The mixture of 39 odorants is incorporated into the above-mentioned shampoo (1st) in an amount of 1%. […] The SPME needle is desorbed in a GC injector, and a gas chromatogram is recorded. […]
Below: a set of entries, each annotated with reported Activity (logarithmic partition parameter above wet hair).
REPORTED_METRIC: Activity (logarithmic partition parameter above wet hair)

> print(dat)
                                   compound  obs.value
1  CC(=O)OC(C)c1ccccc1 (centres unmarked) [Styrolyl acetate]     −1.029
2  CC1=CCC2CC1C2(C)C (stereo not drawn) [alpha-Pinene]     −0.776
3         CC(=O)OCc1ccccc1 [Benzyl acetate]     −1.006
4  C=CC(C)(O)CCC=C(C)C (centres unmarked) [Linalool]     −1.119
5  CC(C)=CCCC(C)CCO (centres unmarked) [Citronellol]     −1.818

Origin of measurements: patent US6741954B2
